assay: Half life is the time required for hydrolysis of compound to 3TC in HBV medium at 37 degree celsius; format: ADME
REPORTED ENDPOINT: half-life (h)
Give bare numbers, in h.

molecule="CN(C)/C=N/c1ccn(C2CSC(CO)O2)c(=O)n1 (configuration not stated)" reported_endpoint=half-life experimental_value=2

Now, please, on to the next molecule.
In plain terms, O=c1nc(/N=C/N2CCOCC2)ccn1C1CSC(CO)O1 (configuration not stated) has a documented half-life of 1

====

experiment: Partition coefficient (logP); type: physicochemical; settings: octanol/water
So I've got a bunch of compounds here, and I need their logP values.
Answers are plain numbers.

compound="CN(C)/C=N/c1ccn(C2CSC(CO)O2)c(=O)n1 (centres undefined)" reported_endpoint=logP experimental_value=1.02
compound=Nc1ccn([C@H]2CC[C@@H](CO)O2)c(=O)n1 reported_endpoint=logP experimental_value=-0.58
compound=Nc1ccn([C@@H]2CS[C@H](CO)O2)c(=O)n1 reported_endpoint=logP experimental_value=0.06

Entry O=c1nc(/N=C/N2CCOCC2)ccn1C1CSC(CO)O1 (centres undefined) , logP reported as 0.62

====

Provide the recorded pEC50 for the entries that follow.
tested on: HepG2; test: Effective concentration to inhibit hepatitis B virus DNA formation in HepG2.2.15 cells was determined in vitro; conditions: Homo sapiens
Answers are plain numbers, as −log10 of the molar value.

Observe how each entry below is paired with its result.
compound="CN(C)/C=N/c1ccn(C2CSC(CO)O2)c(=O)n1 (stereo not drawn)" reported_endpoint=pEC50 experimental_value=8.00
compound=Nc1ccn([C@@H]2CS[C@H](CO)O2)c(=O)n1 reported_endpoint=pEC50 experimental_value=6.70

What the record says about O=c1nc(/N=C/N2CCOCC2)ccn1C1CSC(CO)O1 (stereo not drawn) : pEC50 is 7.30

====

Would you kindly list EC50 for each of these molecules?
tested on: MT4; assay: Effective concentration to inhibit HIV-1 IIIB cytopathicity in MT-4 cells was determined in vitro; format: functional, cell-based; settings: Homo sapiens

Examples from the recorded data:
molecule=Nc1ccn([C@H]2CC[C@@H](CO)O2)c(=O)n1 experimental_value="1040 nM"
molecule="CN(C)/C=N/c1ccn(C2CSC(CO)O2)c(=O)n1 (centres undefined)" experimental_value="570 nM"
molecule=Nc1ccn([C@@H]2CS[C@H](CO)O2)c(=O)n1 experimental_value="500 nM"

The reported MT4 EC50 of O=c1nc(/N=C/N2CCOCC2)ccn1C1CSC(CO)O1 (centres undefined) is 400 nM

====

assay: Half life is the time required for hydrolysis of compound to 3TC in PBS medium at 37 degree celsius; format: ADME
Record form. Attribute: half-life. Fill in for each entry.
Numbers only, in h.

compound="CN(C)/C=N/c1ccn(C2CSC(CO)O2)c(=O)n1 (configuration not stated)" reported_endpoint=half-life unit_descriptor=h experimental_value=3.5

Now for another entry.
Item: O=c1nc(/N=C/N2CCOCC2)ccn1C1CSC(CO)O1 (configuration not stated) | half-life: 2.5

====

experiment: Half life is the time required for hydrolysis of compound to 3TC in MT-4 lysate medium at 37 degree celsius; format: ADME; details: human, MT-4 cell lysate
REPORTED ENDPOINT: half-life

Each of the following entries comes with a recorded value; kindly state half-life for each.
1. O=c1nc(/N=C/N2CCOCC2)ccn1C1CSC(CO)O1 (configuration not stated)
2. CN(C)/C=N/c1ccn(C2CSC(CO)O2)c(=O)n1 (configuration not stated)

3.5 h
4.5 h
